Where do the numbers come from? From ChEMBL document CHEMBL1145726.

Please respond with reported inhibition for every item in the list.
assay.remarks: Inhibition of L11BD (L11 binding domain) 58-mer methylation of A1067 at 50 uM
Type: functional
Answers are plain numbers, in %.

Answered examples (4):
C[C@H](O)[C@@H](NC(=O)[C@@H](NC(=O)c1csc(-c2ccccc2)n1)[C@@H](C)O)c1nc(C(=O)O)cs1 ... 35
CC(C)[C@@H](NC(=O)[C@@H](NC(=O)c1csc(-c2ccccc2)n1)[C@@H](C)O)c1nc(C(=O)NCc2ccc3c(c2)OCO3)cs1 ... 24
CC(C)[C@@H](NC(=O)[C@@H](NC(=O)c1csc(-c2ccccc2)n1)[C@@H](C)O)c1nc(C(=O)NCCCO)cs1 ... 37
CC[C@@H](NC(=O)[C@@H](NC(=O)c1csc(-c2ccccc2)n1)[C@@H](C)O)c1nc(C(=O)NCc2ccc3c(c2)OCO3)cs1 ... 28

Exercise: Returns the measured inhibition for the input compound. Input: C[C@H](O)[C@H](NC(=O)c1csc(-c2ccccc2)n1)c1nc(C(=O)N2CCN(CCOCCO)CC2)cs1
Solution: 59

* * *

Tested on: Escherichia coli
assay.remarks: In vitro inhibition of protein translation in Escherichia coli
Format: functional
Please respond with reported Inhibition for every item in the list.
Numbers only, in %.

Answered examples (3):
CC(C)[C@@H](NC(=O)[C@@H](NC(=O)c1csc(-c2ccccc2)n1)[C@@H](C)O)c1nc(C(=O)NCc2ccc3c(c2)OCO3)cs1 ... 16
CC[C@@H](NC(=O)[C@@H](NC(=O)c1csc(-c2ccccc2)n1)[C@@H](C)O)c1nc(C(=O)NCc2ccc3c(c2)OCO3)cs1 ... 31
C=C(NC(=O)C(=C)NC(=O)c1csc(C2=N[C@@H]3c4csc(n4)[C@H]4NC(=O)c5csc(n5)[C@H]([C@](C)(O)[C@@H](C)O)NC(=O)[C@H]5CSC(=N5)/C(=C/C)NC(=O)[C@H]([C@@H](C)O)NC(=O)c5csc(n5)[C@]3(CC2)NC(=O)[C@H](C)NC(=O)C(=C)NC(=O)[C@H](C)NC(=O)[C@H]([C@@H](C)CC)N[C@@H]2C=Cc3c([C@H](C)O)cc(nc3[C@H]2O)C(=O)O[C@@H]4C)n1)C(N)=O [THIOSTREPTON] ... 98

// next item, Inhibition requested
Exercise: Returns the measured Inhibition for the input compound. Input: CC(C)[C@@H](NC(=O)[C@@H](NC(=O)c1csc(-c2ccccc2)n1)[C@@H](C)O)c1nc(C(=O)NCCCO)cs1
Solution: 48
